Numbers sourced from PubChem BioAssay (NCI).

- Test system: SF-539 CNS
- method notes: NCI tumour cell line growth inhibition, 48 h
measured quantity: TGI

Here's what some known entries look like.
NC(=O)CCC(NC(=O)Cc1ccccc1)C(=O)O (configuration not stated) (tested in a mixture with another compound) :: > 8130 µM
COc1cc([C@H]2CC(=O)C[C@@H](c3cc(OC)c(OC)c(OC)c3)C23C(=O)c2ccccc2C3=O)cc(OC)c1OC :: > 100 µM
COc1cc2c(cc1OC)-c1c(oc3cc(OC4OC(CO)C(O)C(O)C4O)c(OC)cc3c1=O)C(O)O2 (configuration not stated) :: > 100 µM
N=c1n(Cc2ccccc2)c(N)cc(=O)n1Cc1ccccc1 :: 4.25 µM
O=c1c2cc(-c3ccccc3)cnc2sn1-c1ccc(Oc2ccccc2)cc1 :: > 100 µM
C[C@]12CC[C@H]3[C@@H](CCC4=CC(=O)CC[C@@]43C)[C@@H]1CC[C@@H]2C(=O)Nc1ccc([N+](=O)[O-])c(C(F)(F)F)c1 :: 33.5 µM

Please examine the following record next.
# input What value of TGI has been reported for the following compound? CC1OC(OC2C(CO)OC(O[C@H]3CC[C@@]4(C)C(=CC[C@H]5[C@@H]6C[C@@H]7O[C@](O)(CC[C@H](CO)COC8OC(CO)C(O)C(O)C8O)[C@@H](C)[C@@H]7[C@@]6(C)CC[C@@H]54)C3)C(OC3OC(C)C(O)C(O)C3O)C2O)C(O)C(O)C1O (some centres not stated)
# output > 100 µM

----------
Measured TGI values are reported for all entries that follow.
- System: M14 melanoma
- method notes: NCI tumour cell line growth inhibition, 48 h

COc1cc([C@@H]2c3cc4c(cc3[C@@H](OC3OC5COC(C)OC5C(OC(=O)CN5CCN(C)CC5)C3OC(=O)CN3CCN(C)CC3)C3COC(=O)[C@@H]32)OCO4)cc(OC)c1OC(=O)CN1CCN(C)CC1 (some centres undefined) :: > 100 µM

# input Provide the documented TGI with M14 melanoma as the system for CCCCCNC(=O)c1c(O)[nH]c(=S)[nH]c1=O
# output > 100 µM

# input Provide the documented TGI with M14 melanoma as the system for CCN(CC)CCCCNc1ncc2cc(-c3cc(OC)cc(OC)c3)c(NC(=O)NC(C)(C)C)nc2n1
# output 9.65 µM

# input Provide the documented TGI with M14 melanoma as the system for COc1ccc2nc3cc([N+](=O)[O-])ccc3c(Nc3ccc(S(=O)(=O)N=C(N)N)cc3)c2c1
# output > 100 µM

----------
- System: A549 NSCLC
- method notes: NCI tumour cell line growth inhibition, 48 h
Measured TGI values are reported for all entries that follow.
Quick note: give the figure in µM, leave out the unit.

O=C1N=NC(=O)N1c1cc(C(F)(F)F)cc(C(F)(F)F)c1 :: 12

# input What value of TGI has been reported for the following compound? O=C1/C(=C/c2ccccc2F)CN(C(=O)C(Cl)Cl)C/C1=C\c1ccccc1F
# output 3.32

----------
- Tested on: SK-MEL-28 melanoma
- method notes: NCI tumour cell line growth inhibition, 48 h
Measured TGI values are reported for all entries that follow.

# input What value of TGI has been reported for the following molecule? COc1cc2c(cc1OC)-c1c(oc3cc(OC4OC(CO)C(O)C(O)C4O)c(OC)cc3c1=O)C(O)O2 (stereo unspecified)
# output > 100 µM

# input What value of TGI has been reported for the following molecule? COC(=O)c1cnn2c1ccc1ccccc12
# output > 100 µM

# input What value of TGI has been reported for the following molecule? Nc1cccc2c1C1=NNC(=O)CC1C2 (stereo unspecified)
# output > 100 µM

# input What value of TGI has been reported for the following molecule? Cc1nn(-c2ccccc2)c2nc3c(nc12)C1=NCCN1C(c1ccc(Cl)cc1)N3 (stereo unspecified)
# output 3.37 µM

# input What value of TGI has been reported for the following molecule? COc1nc(N)nc2c1ncn2[C@@H]1O[C@H](CO)[C@@H](O)[C@@H]1O
# output > 100 µM

# input What value of TGI has been reported for the following molecule? CCOC(=O)c1[nH]cc(C)c1-c1c[nH]c2ccccc12
# output > 100 µM
